- measuredTarget: hNPY2R (Homo sapiens)
- Construct: expressed in transfected cells; host or cells: HEK-293 cells carrying a CRE-luciferase reporter gene
- Sequence (P49146 whole entry): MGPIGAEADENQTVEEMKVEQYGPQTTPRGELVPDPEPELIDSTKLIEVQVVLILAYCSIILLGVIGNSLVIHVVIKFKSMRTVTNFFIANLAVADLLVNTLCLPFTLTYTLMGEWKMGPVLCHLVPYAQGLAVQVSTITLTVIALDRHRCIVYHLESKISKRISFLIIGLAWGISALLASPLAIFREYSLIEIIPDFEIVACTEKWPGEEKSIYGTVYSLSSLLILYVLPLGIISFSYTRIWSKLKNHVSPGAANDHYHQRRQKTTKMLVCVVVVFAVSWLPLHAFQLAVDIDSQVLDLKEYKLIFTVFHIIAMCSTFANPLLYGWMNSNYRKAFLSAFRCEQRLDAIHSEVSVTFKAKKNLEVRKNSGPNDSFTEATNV
- experimentalDetails: hNPY2R CreLuc reporter gene assay in 0.5% and 100% plasma
- Assay type: cell-based
- experimentalContext: CreLuc reporter gene assay, 100% human plasma; read-out: hNPY2R 100% hP
- Method: Example 1: hGLPR/hGIPR/hNPY2R CreLuc Assay in 0.5% and 100% Plasma CHO and HEK-293 recombinant cell lines express a luciferase reporter gene under control of the cAMP responsive element (CRE). […] Following incubation, assay plates are equilibrated to room temperature, followed by addition of 25 μl of Bright-GIo™ Luciferase reagent, incubation at room temperature for 10 minutes and analysis of luminescence (Envision Reader). […]
Starred links: 1 amine or outer side, 2 acyl side, 3 side chain; linkers in the order of their positions; H or OH if unused. Non-standard residues stand in square brackets, D forms with d. Groups on a side chain read outwards from the residue. No end group written: not given here. *: point of attachment. C20 diacid = O=C(O)CCCCCCCCCCCCCCCCCCC(=O)*; C18 diacid = O=C(O)CCCCCCCCCCCCCCCCC(=O)*; γGlu = O=C(O)[C@H](CCC(=O)[*:2])N[*:1]; εLys = N[C@@H](CCCCN[*:1])C(=O)[*:2]; AEEA = NCCOCCOCC(=O)O; Aib = CC(C)(N)C(=O)O
readoutKind: EC50 (µM)
Write it as a number; the unit µM goes unstated.

Check out these entries, answers already filled in.
* H-Y[Aib]EGTFTSDYSI[Aib]LEKQAQ[Aib]AFVEWLIK([εLys-γGlu-γGlu-γGlu-γGlu-γGlu-γGlu-C20 diacid])GGPRYYASLRHYYNWLTRQRY-NH2 [Compound 62] | 0.0405
* Y[Aib]EGTFTSDYSI[Aib]LEKQAQ[Aib]AFVEWLIK([AEEA-AEEA-γGlu-γGlu-γGlu-C18 diacid])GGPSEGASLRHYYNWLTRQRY-NH2 [Compound 299] | 0.0316

Q) What value of measured EC50 is listed for H-Y[Aib]EGTFTSDYSI[Aib]LEKQAQ[Aib]AFVEWLIK([εLys-γGlu-γGlu-γGlu-γGlu-γGlu-γGlu-C20 diacid])GGPSSYVSIRHYYNWLTRQRY-NH2 [Compound 9] ?
A) 0.0189
